All figures here come from patent US20130345177A1.

- System: Trichophyton mentagrophytes B70554
- ASSAY_PROTOCOL: In vitro efficacy against yeasts and fungi (microplates)
- Type: cell-based
READOUT_NAME: IC50 (nM)
Answers are plain numbers, in nM.

Problem: Dear colleague, I am looking for the recorded IC50 of the following compound: CCCCCCCC/C=C\CCCCCCCCOP(=O)([O-])OCC[N+](C)(C)C
Solution: 2000

----------
- Tested on: Aspergillus fumigatus B19119
- ASSAY_PROTOCOL: In vitro efficacy against yeasts and fungi (microplates)
- Format: cell-based
READOUT_NAME: IC50 (µM)
One number for each entry, in µM.

Problem: Dear colleague, I am looking for the recorded IC50 of the following compound: CCCCCCCC/C=C\CCCCCCCCOP(=O)([O-])OCC[N+](C)(C)C [OlPC, oleyl phosphocholine]
Solution: 1.87
